- method-summary: qHTS of pediatric cancer cell lines to identify multiple opportunities for drug repurposing: Primary screen for Rh41 cells (AID 1347108); further: nearly all actives have a fitted effect of over 70% in size
- conditions: Rh41 rhabdomyosarcoma viability, CellTiter-Glo luminescence, 48 h; series mostly up to 46 µM
Results filed as inconclusive are left out. Activity calls are given as the source filed them. The call rests on the fitted dose curve; in most records, active means well fitted cell-killing curve with a large enough effect; inconclusive means small, poorly fitted or top-dose-only effect; inactive means no such curve, though single readings can be large or run the other way.
In this exercise, the only acceptable responses are class 1 = active, class 0 = inactive

Some solved entries appear below for comparison.
CC(C)Oc1cccc(NC(=O)c2ccccc2C(F)(F)F)c1    class 0
Nc1ccc(Sc2ccc(N)cc2)cc1    class 0
CC1=C(O)C(=O)C=C2C1=CC=C1[C@@]2(C)CC[C@@]2(C)[C@@H]3C[C@](C)(C(=O)O)CC[C@]3(C)CC[C@]12C    class 1
O=c1cccc2n1CC1CNC[C@H]2C1    class 1
COC[C@H]1OC(=O)c2coc3c2[C@@]1(C)C1=C(C3=O)[C@@H]2CC[C@H](O)[C@@]2(C)C[C@@H]1OC(C)=O    class 1
O=c1[nH]c2ccc(Cl)cc2c(N[C@@H]2CN3CCC2CC3)c1-c1nc2ccccc2[nH]1    class 1
O=C(O)CCCOc1ccc(Cl)cc1Cl    class 0
Oc1ccc2c3c1O[C@H]1[C@@H](O)C=C[C@H]4[C@@H](C2)NCC[C@@]341    class 0
CC[C@@]1(O)C(=O)OCc2c1cc1n(c2=O)Cc2cc3ccccc3nc2-1    class 1

Now take the following compound into account.
Req: How did this test come out for Nc1ccc([N+](=O)[O-])cc1 ?
Resp: class 0

* * *

Listed next: entries and their corresponding activity change, negative = cytotoxicity.
- method-summary: Cell Viability - N2a (AID 540);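 further: cells exposed to compound for 40 h at 37 °C; plate controls were DMSO alone for no effect and tamoxifen control for full effect; nearly all actives have a fitted effect of over 45% in size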
- conditions: N2a mouse neuroblastoma cell viability; at 92.2 µM (top of the series)
Records with an inconclusive call do not appear.
Give the number; % is assumed, so skip it.

O=[N+]([O-])c1c(Cl)c(Cl)cc(Cl)c1Cl    3.06
Nc1ccc([N+](=O)[O-])cc1    0.412
O=[N+]([O-])c1cc([N+](=O)[O-])c2ccccc2c1    -22.1
CCCCC(CC)COC(=O)c1ccccc1C(=O)OCC(CC)CCCC (stereo not given)    -29.3

Field: next compound
Req: Query activity change, negative = cytotoxicity for c1cc2ccc3cccc4ccc(c1)c2c34
Resp: 2.91

* * *

- method-summary: Quantitative High-Throughput drug screen in 47 multiple myeloma cell lines against the NCATS MIPE library collection: Karpas620_DSMZ cell viability assay (AID 1918959); further: nearly all actives have a fitted effect of over 30% in size
- conditions: Karpas620 myeloma viability, CellTiter-Glo ATP luminescence, 48 h; series mostly up to 45.8 µM
Results filed as inconclusive are left out. Active and inactive are the calls of the source. The call rests on the fitted dose curve; in most records, active means well fitted cell-killing curve with a large enough effect; inconclusive means small, poorly fitted or top-dose-only effect, or effect the other way; inactive means no such curve, though single readings can be large or run the other way.
In this exercise, the only acceptable responses are 1.0 = active, 0.0 = inactive

Some solved entries appear below for comparison.
C[C@]12CC[C@H]3[C@@H](CCC4=CC(=O)CC[C@@]43C)[C@H]1CC[C@H]2O    0.0
CC(C)N(CCNC(=O)CN1CCCC1=O)C(C)C    0.0
CCOP(=O)(OCC)C(C)NC(=O)N(CCCl)N=O (configuration not stated)    0.0
C[C@@]12OC(=O)[C@]1([C@@H](O)[C@@H]1C=CCCC1)NC(=O)[C@H]2CCCl    1.0
CN(C)NC(=O)CCC(=O)O    0.0
O=S(=O)(F)Cc1ccccc1    0.0
CCC(=O)OC1CCC2C3CCC4=CC(=O)CC[C@@]4(C)C3CC[C@]12C (some centres not stated)    0.0
CC1=C(O)C(=O)C=C2C1=CC=C1[C@@]2(C)CC[C@@]2(C)[C@@H]3C[C@](C)(C(=O)O)CC[C@]3(C)CC[C@]12C    1.0

Req: How did this test come out for Cc1ccccc1-n1c(Cn2ncc3c(N)ncnc32)nc2cccc(C)c2c1=O ?
Resp: 1.0

Req: How did this test come out for CC(=CCCC1=CCC(C2=CC(=O)OC2O)OC1O)CCC1=C(C)CCCC1(C)C (configuration not stated) ?
Resp: 0.0

Req: How did this test come out for CC(C)(O)C=CC(=O)[C@](C)(O)[C@H]1[C@H](O)C[C@]2(C)[C@@H]3CC=C4[C@@H](C=C(O)C(=O)C4(C)C)[C@]3(C)C(=O)C[C@@]12C ?
Resp: 1.0

Req: How did this test come out for CC(C)(C)[C@]1(O)C[C@@H]2OC(=O)C[C@@]23C(=O)O[C@@H]2OC(=O)[C@H](O)C213 (some centres not stated) ?
Resp: 0.0

* * *

- System: astro
- method-summary: Drug repurposing screens with cells derived from glioblastoma tumor samples (AID 1345199); further: on the % scale 0 is the no-effect control and ±100 the full control effect; nearly all actives have a fitted effect of over 40% in size
- conditions: viability, ATP luminescence, 48 h; series mostly up to 45.9 µM
- Experimental: CD133+ cells were isolated from GBM patient biopsies and cultured as neurospheres. Neurospheres from four patients were used to screen the NCATS pharmaceutical collection (NPC) library of approved drugs and bioactive compounds. […] The neurospheres were incubated with drugs for 48 hours in 1536-well format, then assayed with an ATP content cell viability assay. […]
Records with an inconclusive call do not appear. Calls of active or inactive are those of the source. The call rests on the fitted dose curve; in most records, active means well fitted inhibition curve with a large enough effect; inconclusive means small, poorly fitted or top-dose-only effect; inactive means flat fitted curve, though single readings scatter.
In this exercise, the only acceptable responses are YES (active), NO (inactive)

c1cc2ccc3cccc4ccc(c1)c2c34    NO
O=[N+]([O-])c1ccc([As](=O)(O)O)cc1    NO
C[C@]12CC[C@@H]3[C@@H](CCC4=CC(=O)CC[C@@H]43)[C@@H]1CC[C@@H]2OC(=O)CCc1ccccc1    NO

Now take the following molecule into account.
Req: How did this test come out for CCOCCOC(C)=O ?
Resp: NO

* * *

- measurement-target: Nucleoprotein (Lymphocytic choriomeningitis virus (strain Armstrong)) (UniProt P09992)
- Sequence (P09992 whole entry, looked up): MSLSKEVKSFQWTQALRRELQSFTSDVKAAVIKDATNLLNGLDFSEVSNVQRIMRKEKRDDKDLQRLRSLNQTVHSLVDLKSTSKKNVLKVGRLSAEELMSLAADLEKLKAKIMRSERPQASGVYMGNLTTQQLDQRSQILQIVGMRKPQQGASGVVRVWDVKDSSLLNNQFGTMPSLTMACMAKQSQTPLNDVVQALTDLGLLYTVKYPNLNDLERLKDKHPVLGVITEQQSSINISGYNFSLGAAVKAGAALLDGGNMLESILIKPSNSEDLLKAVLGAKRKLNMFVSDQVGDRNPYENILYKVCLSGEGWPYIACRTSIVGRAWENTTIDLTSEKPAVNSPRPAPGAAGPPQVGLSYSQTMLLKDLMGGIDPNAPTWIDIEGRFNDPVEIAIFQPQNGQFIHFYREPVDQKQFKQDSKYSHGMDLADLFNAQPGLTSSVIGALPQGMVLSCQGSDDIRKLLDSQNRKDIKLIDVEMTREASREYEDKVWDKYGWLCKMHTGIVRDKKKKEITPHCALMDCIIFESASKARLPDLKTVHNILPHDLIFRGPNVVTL
- method-summary: qHTS for Inhibitors of the Functional Ribonucleoprotein Complex (vRNP) of Lymphocytic Choriomeningitis Arenaviruses (LCMV): LCMV Primary Screen - GLuc reporter signal (AID 1347086); further: nearly all actives have a fitted effect of over 70% in size
- conditions: LCMV minigenome vRNP cell assay, Gaussia luciferase reporter; series mostly up to 57.5 µM
Records with an inconclusive call do not appear. Calls of active or inactive are those of the source. Calls follow the shape of the full dose curve.
In this exercise, the only acceptable responses are active, inactive

Cn1cncc1[C@@](N)(c1ccc(Cl)cc1)c1ccc2c(c1)c(-c1cccc(Cl)c1)cc(=O)n2C    active
O=C(NC1CCNCC1)c1[nH]ncc1NC(=O)c1c(Cl)cccc1Cl    active
CC[C@@H]1[C@@H](C)O[C@@](O)([C@@H](C)[C@H](O)[C@H](C)[C@H]2OC(=O)C=CC=C[C@@H](C)[C@@H]([C@@H](C)[C@@H](O)[C@H](C)[C@@]3(O)C[C@H](O[C@H]4C[C@H](O)[C@H](O)[C@H](C)O4)[C@H](CC)[C@@H](C)O3)OC(=O)C=CC=C[C@@H]2C)C[C@H]1O[C@H]1C[C@H](O)[C@H](O)[C@H](C)O1    active
NCc1cc(=O)[nH]o1    inactive
O=C(O)CNC(=O)CNC(=O)CNC(=O)CSC(=O)c1ccccc1    inactive

Req: How did this test come out for O=C(Oc1ccc([N+](=O)[O-])cc1)N1CCC(C(O)(c2ccc3c(c2)OCO3)c2ccc3c(c2)OCO3)CC1 ?
Resp: inactive

* * *

- method-summary: Cell Viability - LYMP2-018 (AID 985);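 further: compound exposure lasted 24 hr at 37 °C; nearly all actives have a fitted effect of over 50% in size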
- conditions: LYMP2-018 lymphoblastoid cells, viability (qHTS); series mostly up to 92.2 µM
Records with an inconclusive call do not appear. The source made the active and inactive calls. Calls follow the shape of the dose curve; as a rule, active = well fitted cell-killing curve with a large enough effect; inconclusive = small, poorly fitted or top-dose-only effect; inactive = flat fitted curve, though single readings scatter.
In this exercise, the only acceptable responses are active, inactive

CCOCCOC(C)=O    inactive
CC(C)(O)C(=O)Nc1ccc([N+](=O)[O-])c(C(F)(F)F)c1    inactive

Now take the following molecule into account.
Req: How did this test come out for CC(=O)[O][Hg][c]1ccccc1 ?
Resp: active

* * *

- method-summary: Quantitative High-Throughput drug screen in 47 multiple myeloma cell lines against the NCATS MIPE library collection: ARP1_JJKsccF8 cell viability assay (AID 1918928; further: nearly all actives have a fitted effect of over 40% in size;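 on viability: 100% = DMSO only wells and 0% = medium only wells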)
- conditions: ARP1 myeloma cells viability, CellTiter-Glo ATP, 48 h; series mostly up to 45.8 µM
Records with an inconclusive call do not appear. Active and inactive are the calls of the source. Calls follow the shape of the dose curve; as a rule, active = well fitted cell-killing curve with a large enough effect; inconclusive = small, poorly fitted or top-dose-only effect, or effect the other way; inactive = no such curve, though single readings can be large or run the other way.
In this exercise, the only acceptable responses are active, inactive

Some solved entries appear below for comparison.
O=C1C=CC[C@@H]2[C@H]3CCCN4CCC[C@@H](CN12)[C@@H]34    inactive
CC[C@@]1(O)C(=O)OCc2c1cc1n(c2=O)Cc2cc3ccccc3nc2-1    active
CC1=NN=C(c2ccc(N)cc2)c2cc3c(cc2C1)OCO3    inactive
C[C@](O)(COc1ccc(C#N)cc1)C(=O)Nc1ccc(C#N)c(C(F)(F)F)c1    inactive

Req: How did this test come out for CC(=CCCC1=CCC(C2=CC(=O)OC2O)OC1O)CCC1=C(C)CCCC1(C)C (stereo not given) ?
Resp: inactive

* * *

- method-summary: Quantitative High-Throughput drug screen in 47 multiple myeloma cell lines against the NCATS MIPE library collection: PCM6_Riken cell viability assay (AID 1919870); further: nearly all actives have a fitted effect of over 30% in size
- conditions: CellTiter-Glo ATP, 48 h; series mostly up to 45.8 µM
Inconclusive results are not listed. Calls of active or inactive are those of the source. The call rests on the fitted dose curve; in most records, active means well fitted cell-killing curve with a large enough effect; inconclusive means small, poorly fitted or top-dose-only effect, or effect the other way; inactive means no such curve, though single readings can be large or run the other way.
In this exercise, the only acceptable responses are active, inactive

Some solved entries appear below for comparison.
CC(C)[C@H]1C(=O)N[C@H](CO)Cc2c[nH]c3cccc(c23)N1C    active
C1=C2CCCN[C@H]2[C@@H]2C[C@H]1[C@@H]1CCCCN1C2    inactive
C[C@@]12OC(=O)[C@]1([C@@H](O)[C@@H]1C=CCCC1)NC(=O)[C@H]2CCCl    active
CC(C)(C)[C@]1(O)C[C@@H]2OC(=O)C[C@@]23C(=O)O[C@@H]2OC(=O)[C@H](O)C213 (stereo partly specified)    inactive

Req: How did this test come out for CCOC(=O)c1cncn1[C@H](C)c1ccccc1 ?
Resp: inactive

Req: How did this test come out for CC(=Cc1csc(C)n1)[C@@H]1C[C@H]2O[C@]2(C)CCC[C@H](C)[C@@H](O)[C@@H](C)C(=O)C(C)(C)[C@@H](O)CC(=O)O1 ?
Resp: inactive

Req: How did this test come out for C#C[C@]1(O)C=C[C@@H]2[C@@H]3CCC4=CC(=O)CC[C@@H]4[C@H]3CC[C@@]21CC ?
Resp: inactive

Req: How did this test come out for O=C(O)CNC(=O)c1c(O)c2ccccc2n(Cc2ccccc2)c1=O ?
Resp: inactive

Req: How did this test come out for CC1(N2CCC(n3c([C@@H]4CCCNC4)nc4ccccc43)CC2)CCCCCCC1 ?
Resp: active
